- target_or_test_system: Adenosine receptor A1 (Bos taurus)
- test: NVS_GPCR_bAdoR_NonSelective: NovaScreen (NVS) G Protein-Coupled Receptor Assay for bovine Adenosine Receptor (AdoR), Non-selective Binding (AID 2283244)
Inconclusive results are not listed. The source made the active and inactive calls. Rule for the calls: active = hit-call score of the fitted dose curve at least 0.9, where 1 is the maximum; inconclusive = response in the unintended direction; inactive = score below 0.9.
API: response.call in active, inactive

Below are worked cases with known answers.
> print(dat)
                         chemical.structure  discrete.label
1             CC(C)(C)c1ccc(O)c(C(C)(C)C)c1        inactive
2  Cc1cc(CCN2CCN(c3nsc4ccccc34)CC2)cc2c1NC(=O)CC2(C)C        inactive
3  CCN(CC)CCNc1ccc(CNC=O)c2sc3ccc(OC)cc3c(=O)c12          active
4  O=C(O)Cc1cc(I)c(Oc2cc(I)c(O)c(I)c2)c(I)c1        inactive

Next, consider the following compound.
# input Returns: the outcome recorded for Nc1cccc2c(N)cccc12 in this assay.
# output inactive

---

- target_or_test_system: Nuclear receptor subfamily 4 group A member 2 (Homo sapiens) (UniProt P43354)
- Sequence (P43354 whole entry, looked up): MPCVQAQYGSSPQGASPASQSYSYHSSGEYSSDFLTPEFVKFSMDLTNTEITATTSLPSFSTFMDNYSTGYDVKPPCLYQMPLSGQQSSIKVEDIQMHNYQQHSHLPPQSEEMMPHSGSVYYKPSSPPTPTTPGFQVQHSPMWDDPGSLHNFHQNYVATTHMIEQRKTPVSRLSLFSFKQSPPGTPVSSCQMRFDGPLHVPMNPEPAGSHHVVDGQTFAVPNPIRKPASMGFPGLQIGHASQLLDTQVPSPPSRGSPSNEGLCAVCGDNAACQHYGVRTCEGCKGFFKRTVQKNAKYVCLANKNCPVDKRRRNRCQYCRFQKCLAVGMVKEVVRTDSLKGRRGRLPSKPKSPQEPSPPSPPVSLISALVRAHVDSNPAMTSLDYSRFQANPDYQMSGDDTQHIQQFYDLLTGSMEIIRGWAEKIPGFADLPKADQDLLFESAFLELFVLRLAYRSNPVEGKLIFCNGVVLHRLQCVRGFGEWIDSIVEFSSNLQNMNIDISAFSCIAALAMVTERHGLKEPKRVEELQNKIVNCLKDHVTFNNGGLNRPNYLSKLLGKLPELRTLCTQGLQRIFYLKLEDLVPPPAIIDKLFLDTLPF
- test: ATG_NURR1_TRANS: Attagene TRANS-FACTORIAL HepG2 Assay for human Nuclear Receptor Related Protein 1 (NURR1) (AID 2282985)
- assay_setup: HepG2 Attagene TRANS reporter, mRNA readout
Inconclusive results are not listed. Calls of active or inactive are those of the source. The calls were made as follows: active = hit-call score of the fitted dose curve at least 0.9, where 1 is the maximum; inconclusive = response in the unintended direction; inactive = score below 0.9.
API: response.call in y (active), n (inactive)

Below are worked cases with known answers.
> print(dat)
                                   compound  discrete.label
1                        Nc1cccc2c(N)cccc12               n
2  O=C(/C=C/c1ccc(O)cc1)CC(=O)/C=C/c1ccc(O)cc1               n
3  FC(F)(I)C(F)(F)C(F)(F)C(F)(F)C(F)(F)C(F)(F)I               y
4                     Oc1cc2ccccc2c2ccccc12               n
5  NC(=O)N(O)[C@@H]1C=C[C@H](Oc2cccc(Oc3ccc(F)cc3)c2)C1               n
6  CC#C[C@]1(O)CC[C@H]2[C@@H]3CCC4=CC(=O)CCC4=C3[C@@H](c3ccc(N(C)C)cc3)C[C@@]21C               n
7   CC[C@H](C)[C@@H](C(=O)O)n1sc2ccccc2c1=O               n
8  Cc1oc(-c2ccccc2)nc1CCOc1ccc(C[C@H](Nc2ccccc2C(=O)c2ccccc2)C(=O)O)cc1               y

# input Returns: the outcome recorded for ClC1=C(Cl)C(Cl)(Cl)C(Cl)=C1Cl in this assay.
# output n

# input Returns: the outcome recorded for O=C(O)c1ccccc1C(c1ccc(O)cc1)c1ccc(O)cc1 in this assay.
# output n

# input Returns: the outcome recorded for CC(C)(C)c1cccc(C(C)(C)C)c1O in this assay.
# output n

# input Returns: the outcome recorded for CCCCCCCCCCCCCC[N+](C)(C)C in this assay.
# output y

# input Returns: the outcome recorded for CCC(C)(C)C1CCC(O)CC1 (configuration not stated) in this assay.
# output n

---

- test: Tanguay_ZF_120hpf_YSE_legacy: (Legacy) Oregon State University Tanguay Lab 120 Hour Post-fertilization zebrafish Assay for Yolk Sac Edema (AID 2283634);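 for AC50: actives raise the incidence of yolk sac edema above the DMSO baseline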
Results filed as inconclusive are left out. Calls of active or inactive are those of the source. Rule for the calls: active = hit-call score of the fitted dose curve at least 0.9, where 1 is the maximum; inconclusive = response in the unintended direction; inactive = score below 0.9.
measurement_label: AC50

Solved cases (4 shown):
> print(dat)
                                   compound  observed.result
1    CC(C)CCCCCCOC(=O)CCCCC(=O)OCCCCCCC(C)C         inactive
2  CCc1ccc(CCOc2ccc(CC3SC(=O)NC3=O)cc2)nc1 (stereo unspecified)         inactive
3  CCN(CC)CCNc1ccc(CNC=O)c2sc3ccc(OC)cc3c(=O)c12         inactive
4          CCOC(=O)CC(O)(CC(=O)OCC)C(=O)OCC         inactive

--- query ---
# input Param item = CC#C[C@]1(O)CC[C@H]2[C@@H]3CCC4=CC(=O)CCC4=C3[C@@H](c3ccc(N(C)C)cc3)C[C@@]21C ; retrieve measured AC50.
# output 73.3 µM (active)

---

- System: turtle Estrogen Receptor (ERa), gene 101933533
- test: ATG_trERa_XSP2: Attagene TRANS-FACTORIAL Multi-Species (XSP2) HepG2 Assay for turtle Estrogen Receptor (ERa) (AID 2283812);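 note: human HepG2 liver cells transiently expressing turtle ERa-Gal4 chimeric receptor; reporter mRNA from GAL4-UAS units measured by RT-PCR and capillary electrophoresis; actives raise reporter signal above DMSO so AC50 reflects agonist activity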
Results filed as inconclusive are left out. Calls of active or inactive are those of the source. The calls were made as follows: active = hit-call score of the fitted dose curve at least 0.9, where 1 is the maximum; inconclusive = response in the unintended direction; inactive = score below 0.9.
API: response.call in YES (active), NO (inactive)

> print(dat)
       chemical.structure  discrete.label
1  c1ccc2c(c1)ccc1ccccc12              NO

# input Returns: the outcome recorded for O=C(O)Cc1cc(I)c(Oc2cc(I)c(O)c(I)c2)c(I)c1 in this assay.
# output NO

# input Returns: the outcome recorded for C#C[C@]1(O)CC[C@H]2[C@@H]3CCC4=CC(=O)CC[C@@H]4[C@H]3CC[C@@]21C in this assay.
# output YES

# input Returns: the outcome recorded for Oc1cc2ccccc2c2ccccc12 in this assay.
# output NO

---

- test: APR_HepG2_CellLoss_72hr: Apredica 72-hour HepG2 Assay for Cell Loss (AID 2282915)
- assay_setup: high-content imaging
The source made the active and inactive calls. Rule for the calls: active = hit-call score of the fitted dose curve at least 0.9, where 1 is the maximum; inactive = score below 0.9.
API: response.call in active, inactive

Below are worked cases with known answers.
> print(dat)
                                    compound  discrete.label
 1                 COc1ccc([N+](=O)[O-])cc1N        inactive
 2                           CC(=O)CC(C)(C)O          active
 3                                  CN(C)C=O        inactive
 4  CCCOc1sc(C(=O)N2CCC(c3cc(CN)ccc3F)CC2)c(C)c1Br          active
 5  CCC(=C(c1ccc(O)cc1)c1ccc(OCCN(C)C)cc1)c1ccccc1        inactive
 6                     CCCCCCCCCCCCN1CCCC1=O          active
 7                            CCCCCCCCC(=O)O        inactive
 8                     Oc1cc2ccccc2c2ccccc12          active
 9  CC(=O)NC1(c2cccc(F)c2)CCN(CC[C@@]2(c3ccc(Cl)c(Cl)c3)CN(c3ccccc3)C(=O)CO2)CC1          active
10   CC[C@H](C)[C@@H](C(=O)O)n1sc2ccccc2c1=O        inactive

# input Returns: the outcome recorded for Nc1cccc2c(N)cccc12 in this assay.
# output active

# input Returns: the outcome recorded for CCC(C)(C)C1CCC(O)CC1 (configuration not stated) in this assay.
# output active

# input Returns: the outcome recorded for CCCCCCCCCCCCc1ccccc1S(=O)(=O)O in this assay.
# output active

# input Returns: the outcome recorded for CC(C)(C)c1cc(C(C)(C)C)c(O)c(C(C)(C)C)c1 in this assay.
# output active

# input Returns: the outcome recorded for c1ccc2cc3c(ccc4ccccc43)cc2c1 in this assay.
# output active

# input Returns: the outcome recorded for CC(C)(C)CC(C)(C)c1ccc(O)c(-n2nc3ccccc3n2)c1 in this assay.
# output active

# input Returns: the outcome recorded for O=C(OCCOCCOC(=O)c1ccccc1)c1ccccc1 in this assay.
# output inactive

# input Returns: the outcome recorded for Cc1cc(C)c(O)c(C)c1 in this assay.
# output inactive

# input Returns: the outcome recorded for CCc1nn(C2CCCCC2)c2cc(C3(C#N)CCC(C(=O)O)CC3)ccc12 (configuration not stated) in this assay.
# output active

# input Returns: the outcome recorded for C=C(C)C(=O)OCCC(F)(F)C(F)(F)C(F)(F)C(F)(F)C(F)(F)C(F)(F)F in this assay.
# output inactive

# input Returns: the outcome recorded for OC1CCCCC1 in this assay.
# output inactive

---

- Read-out: Interleukin-8 (IL8), CXCL8 (gene 3576)
- test: BSK_hDFCGF_IL8: BioMAP Diversity Plus: hDFCGF Assay for Interleukin-8 (IL8) Biomarker Activity (AID 2283058)
- assay_setup: primary human foreskin fibroblasts; actives raise or lower the signal
Activity calls are given as the source filed them. Rule for the calls: active = hit-call score of the fitted dose curve at least 0.9, where 1 is the maximum; inactive = score below 0.9.
API: response.call in label 1 (active), label 0 (inactive)

> print(dat)
                                   compound  discrete.label
1  N#C[C@@H]1CC(F)(F)CN1C(=O)CNC1CC2CCC(C1)N2c1ncccn1 (stereo partly specified)         label 0
2  C#C[C@]1(O)CC[C@H]2[C@@H]3CCC4=CC(=O)CC[C@@H]4[C@H]3CC[C@@]21C         label 0
3                                 OC1CCCCC1         label 0
4         CCCCCCCCCCCCCCCS(=O)(=O)Oc1ccccc1         label 0
5  Cc1cc(CCN2CCN(c3nsc4ccccc34)CC2)cc2c1NC(=O)CC2(C)C         label 1

Next, consider the following compound.
# input Returns: the outcome recorded for CCCCOCCO in this assay.
# output label 0
